Measured apparent KD of MS2 coat protein accompanies every entry in the list below.
Tested on: MS2 coat protein
Test: apparent KD of MS2 coat protein; designed switch direction (-1 OFF switch, 1 ON switch): 1; higher = weaker reporter binding
Conditions: input ligand: microRNA oligo, concentration not stated
Enter your answer as a number in nM; do not include the unit.

Here's what some known entries look like.
Query sequence	Tested target	Units label	Observed measurement
GUUACAUGAGGAUCACCCAUGUAUGUGUGGGAGUAAGUGUCUUAGGAUAUCUAUCAAUUAAUUUAAGAGAAGGAAGAUUGUUGU [JMF's solution 89] (Eterna round: R96, puzzle: Same State NG 3)	MS2 coat protein	nM	94
UUGAAGAAUUAAGGAUAUUGAAUACAUAUGUUUAACAUGAGGAUCACCCAUGUGGGUUGCGGUGUCGAGAAGGUAAAUUAAUAG [Mat - same State NG 2 - JL mod - D94] (Eterna round: R96, puzzle: Same State NG 2)	MS2 coat protein	nM	191
AGCCGAGACUGAGGAUAUUUAAAUCUACAUGAGGAUCACCCAUGUAACAACACGUGGUAGUGAUUGAAGAAGGCGGCUCGGCGC [Omei SS(NG)2 Cv2] (Eterna round: R96, puzzle: Same State NG 2)	MS2 coat protein	nM	406
AGAAGACAUGAGGAUCACCCAUGUACCUCAUAAGGAGAGAGCGAGGAUAUGUAGAGAGAGAGGGAACAGAAGGUGUGAGAGGAA [Default title] (Eterna round: R96, puzzle: Same State NG 3)	MS2 coat protein	nM	99.4

Lookup: Name the recorded apparent KD of MS2 coat protein of the sequence listed here: AAAGGAUGAUGUUACAUGAGGAUCACCCAUGUUGUGAUAACUAAGGAUAUGUGUUUAACCAGUUAAUAGAAGGUAGGAUCAUAA [AK SSNG3-V2-4] (Eterna round: R96, puzzle: Same State NG 3)
Found: 97.4

Lookup: Name the recorded apparent KD of MS2 coat protein of the sequence listed here: UUUCUCAUGUAAGGAUAUGCAGCCGUUUCGGCUGCAGAAGGUACUAUAAUACAUGAGGAUCACCCAUGUCUCUCGCAUUGCGAG [JL SSNG1 1.48] (Eterna round: R96, puzzle: Same State NG 1)
Found: 28.9

====

System: MS2 coat protein
Assay: apparent KD of MS2 coat protein; designed switch direction (-1 OFF switch, 1 ON switch): -1; higher = weaker reporter binding
Conditions: input ligand: FMN 200 uM
Measured apparent KD of MS2 coat protein accompanies every entry in the list below.
Please answer in the form of a number followed by its unit of measurement.

Query sequence	apparent KD of MS2 coat protein
AGUAACUCAAGAGGAUAUCACAUGAGGAUCACCCAUGUAUAGCGCGCUAUGCUAGUCCUCGUAUUUGAGAAGGUUUGAUAAAUG [JL ViennaUCT Quve mod 2] (Eterna round: R96, puzzle: Exclusion NG 2)	16.8 nM
AUAAUGUGAGGAUAUCACGCCCAAAUAAAUGGGCGAAAUAAUGAGAAGGCACAUGAGGAUCACCCAUGUCCGAA [EX4 A.25] (Eterna round: R97, puzzle: Exclusion 4)	180 nM
CAGUACUGAGGAUAUACAUGAGGAUCACCCAUGUGUUCCAGCUAGGAAACUAGCAUAUGUAGAAGGCAGUACUG [Eli x3 4.06] (Eterna round: R97, puzzle: Exclusion 3)	578 nM
CGAUGCUCGAAUCCACAUGAGGAUCACCCAUGUCGAGUUAGCGAGGAUAUCGGUGACACAUAGUACGAGAAGGCGCGAACCUGA [Ex NG3 #25] (Eterna round: R96, puzzle: Exclusion NG 3)	50.9 nM

Pending sequence:
Lookup: Name the recorded apparent KD of MS2 coat protein of the sequence listed here: ACUGGUGCAGGAUAUGCAAUCGUGCUUCGGCACGUAAGGUCACAUGAGGAUCACCCAUGUAGAAGGGCACCAGU [E2/4-D1] (Eterna round: R97, puzzle: Exclusion 2)
Found: 33.2 nM
